Examples of compounds with documented PRE Application IPOHE herbicidal damage (five point scale) follow.
# Tested on: Ipomoea hederacea (IPOHE)
# test_summary: Pre-emergence herbicidal glasshouse test on Ipomoea hederacea
# Format: in vivo
# run_conditions: pre-emergence; 1000 g/h; evaluated after 13 days

// solved cases for PRE Application IPOHE herbicidal damage (five point scale) follow
Cn1ncc(-c2cccn(Cc3ccccc3)c2=O)c(O)c1=O [Compound 9.008] : 1 (1=0-19% damage)
COc1c(Cl)ccc(-c2cnn(C)c(=O)c2O)c1F [Compound 1.063] : 1 (1=0-19% damage)
Cc1nc(C(C)F)ccc1-c1cnn(C)c(=O)c1O (centres unmarked) [Compound 1.068] : 3 (3=40-59% damage)
C=C(C)c1ccc(-c2cnn(C)c(=O)c2O)c(S(C)(=O)=O)c1 [Compound 1.140] : 2 (2=20-39% damage)

Now look at this entry.
Give the reported PRE Application IPOHE herbicidal damage (five point scale) for this compound. Cc1c(-c2c(C3CC3)nn(C)c(=O)c2O)ccc(S(C)(=O)=O)c1C1=NOCC1 [Compound 2.019]
4 (4=60-79% damage)

---

# Tested on: Alopecurus myosuroides (ALOMY)
# test_summary: Post-emergence herbicidal glasshouse test on Alopecurus myosuroides
# Type: in vivo
# run_conditions: post-emergence; 1000 g/h; evaluated after 13 days
# Experimental: Seeds of a variety of test species are sown in standard soil in pots (Alopecurus myosuroides (ALOMY), Setaria faberi (SETFA), Echinochloa crus-galli (ECHCG), Solanum nigrum (SOLNI), Amaranthus retoflexus (AMARE), Ipomoea hederacea (IPOHE)). […] After 13 days for pre and post-emergence, the test is evaluated for the percentage herbicidal damage caused to the plant. […]
Reported POST Application ALOMY herbicidal damage (five point scale) values for a set of compounds

Past entries and their recorded results:
Cn1ncc(-c2cccc3ccccc23)c(O)c1=O [Compound 1.095] : 1 (1=0-19% damage)
Cn1ncc(-c2ccc(F)cc2S(C)(=O)=O)c(O)c1=O [Compound 1.058] : 5 (5=80-100% damage)
CSc1ccn(-c2cnn(C)c(=O)c2O)c(=O)c1 [Compound 1.027] : 1 (1=0-19% damage)
Cn1ncc(-c2ccccc2[S+](C)[O-])c(O)c1=O (centres unmarked) [Compound 1.036] : 5 (5=80-100% damage)

Okay, now this compound:
Give me measured POST Application ALOMY herbicidal damage (five point scale), please, for this compound: C=Cc1cccc(-c2c(C(F)(F)F)ccn(-c3cnn(C)c(=O)c3O)c2=O)c1 [Compound 7.011]
1 (1=0-19% damage)

---

Recorded PRE Application IPOHE herbicidal damage (five point scale) for the following compounds
# System: Ipomoea hederacea (IPOHE)
# test_summary: Pre-emergence herbicidal glasshouse test on Ipomoea hederacea
# Type: in vivo
# run_conditions: pre-emergence; 1000 g/h; evaluated after 13 days

Below: 2 compounds and their reported PRE Application IPOHE herbicidal damage (five point scale).
C=CCn1cccc(-c2cnn(C)c(=O)c2O)c1=O : 1 (1=0-19% damage)
Cn1ncc(-c2cccn(-c3cccc(Cl)c3)c2=O)c(O)c1=O : 1 (1=0-19% damage)

Note PRE Application IPOHE herbicidal damage (five point scale) for the compound shown: "Cn1ncc(-c2c(Br)cccc2S(C)(=O)=O)c(O)c1=O"
1 (1=0-19% damage)

Given Cn1ncc(-c2ccccc2[S+]([O-])C(F)(F)F)c(O)c1=O (stereo not drawn) , respond with its PRE Application IPOHE herbicidal damage (five point scale).
2 (2=20-39% damage)

Write down PRE Application IPOHE herbicidal damage (five point scale) measured for item "Cn1ncc(-c2cccn(-c3cccc(F)c3)c2=O)c(O)c1=O"
2 (2=20-39% damage)

Give a short answer stating reported PRE Application IPOHE herbicidal damage (five point scale) for "Cn1cccc(-c2cnn(C)c(=O)c2O)c1=O" .
1 (1=0-19% damage)

State its PRE Application IPOHE herbicidal damage (five point scale) for this compound: "Cn1ncc(-c2ccc(C(F)(F)F)nc2N2CCOCC2)c(O)c1=O"
2 (2=20-39% damage)

Note PRE Application IPOHE herbicidal damage (five point scale) for the compound shown: "Cn1ncc(-c2ccc(S(C)(=O)=O)c(OCC(F)(F)F)c2Cl)c(O)c1=O"
1 (1=0-19% damage)

Give a short answer stating reported PRE Application IPOHE herbicidal damage (five point scale) for "CC(C)n1ncc(-c2ccc(S(C)(=O)=O)c(C3=NOCC3)c2Cl)c(O)c1=O" .
2 (2=20-39% damage)

Note PRE Application IPOHE herbicidal damage (five point scale) for the compound shown: "Cc1c(-c2cnn(CC3CC3)c(=O)c2O)ccc(S(C)(=O)=O)c1C1=NOCC1"
4 (4=60-79% damage)

Dear colleague, please send me the reported PRE Application IPOHE herbicidal damage (five point scale) for "Cc1c(Cl)cccc1-c1c(C(F)(F)F)ccn(-c2cnn(C)c(=O)c2O)c1=O" when you can.
4 (4=60-79% damage)

# return recorded PRE Application IPOHE herbicidal damage (five point scale) for entry "Cn1ncc(-c2ccc([N+](=O)[O-])cc2S(C)(=O)=O)c(O)c1=O"
3 (3=40-59% damage)

Name the recorded PRE Application IPOHE herbicidal damage (five point scale) of the item Cn1ncc(-c2ccc(C(F)(F)F)cc2[S+](C)[O-])c(O)c1=O (stereo not drawn) in your answer.
5 (5=80-100% damage)

Could you please provide reported PRE Application IPOHE herbicidal damage (five point scale) for "COc1nn(C)c(=O)c(O)c1-c1ccc(C(F)(F)F)cc1S(C)(=O)=O" ? Thanks!
5 (5=80-100% damage)

Give PRE Application IPOHE herbicidal damage (five point scale) for "Cc1c(-c2cnn(C(C)(C)C)c(=O)c2O)ccc(S(C)(=O)=O)c1C1=NOCC1"
1 (1=0-19% damage)

Given "Cn1ncc(-n2ccc(C(F)(F)F)c(-c3cccc(C(F)(F)F)c3)c2=O)c(O)c1=O" , respond with its PRE Application IPOHE herbicidal damage (five point scale).
2 (2=20-39% damage)

Retrieve PRE Application IPOHE herbicidal damage (five point scale) measured for "CS(=O)(=O)c1ccccc1-c1cnn(CC(F)F)c(=O)c1O" and print it.
5 (5=80-100% damage)

For the compound "CCCOc1nn(C)c(=O)c(O)c1-c1ccc(C(F)(F)F)cc1S(C)(=O)=O" , give its reported PRE Application IPOHE herbicidal damage (five point scale).
4 (4=60-79% damage)
